Data provenance is PubChem BioAssay (NCATS).

Target: Rap guanine nucleotide exchange factor 3 (Homo sapiens)
Assay: Counterscreen qHTS for agonist of cAMP-regulated guanine nucleotide exchange factor 3 (EPAC1) (AID 1645889); note: % of control where 0% means no effect; nearly all actives have a fitted effect of over 40% in size
Conditions: EPAC1 Rap1B-BODIPY-GDP exchange, fluorescence; series mostly up to 154 µM
Records with an inconclusive call do not appear. The source made the active and inactive calls. Calls come from the whole dose curve; as a rule, active = well fitted activation curve with a large enough effect; inconclusive = small, poorly fitted or top-dose-only effect, or another doubt; inactive = no such curve, though single readings can be large or run the other way.

[
  {
    "compound": "Cc1cc(C)c2sc(N(CCCN(C)C)C(=O)c3ccc(S(=O)(=O)N(C)C4CCCCC4)cc3)nc2c1",
    "test target": "Rap guanine nucleotide exchange factor 3 (Homo sapiens)",
    "activation": "inactive"
  },
  {
    "compound": "COC(=O)c1ccc2nc(-c3ccco3)c(Cc3ccc(OC)cc3C)n2c1",
    "test target": "Rap guanine nucleotide exchange factor 3 (Homo sapiens)",
    "activation": "inactive"
  },
  {
    "compound": "Cc1ccc(C2CC(=O)Oc3cc(C)c(Br)c(C)c32)cc1 (centres undefined)",
    "test target": "Rap guanine nucleotide exchange factor 3 (Homo sapiens)",
    "activation": "inactive"
  },
  {
    "compound": "O=c1ccc(-c2ccccc2)nn1Cc1ccc(Cl)cc1",
    "test target": "Rap guanine nucleotide exchange factor 3 (Homo sapiens)",
    "activation": "inactive"
  },
  {
    "compound": "N#Cc1c(NC(=O)C2CC=CCC2C(=O)O)sc2c1CCCCCC2 (centres undefined)",
    "test target": "Rap guanine nucleotide exchange factor 3 (Homo sapiens)",
    "activation": "6.58% [at 30.8 µM] (inactive)"
  },
  {
    "compound": "O=C(NCc1ccco1)c1sc(=S)n2c1[nH]c(=O)c1ccccc12",
    "test target": "Rap guanine nucleotide exchange factor 3 (Homo sapiens)",
    "activation": "-8.6% [at 30.8 µM] (inactive)"
  },
  {
    "compound": "Cc1ccc(N(C(=O)c2ccccc2Cl)C2=NC(C)CS2)c(C)c1 (centres undefined)",
    "test target": "Rap guanine nucleotide exchange factor 3 (Homo sapiens)",
    "activation": "26.9% [at 30.8 µM] (inactive)"
  },
  {
    "compound": "COc1ccc(OCC(=O)OCCNC(=O)c2cccnc2)cc1",
    "test target": "Rap guanine nucleotide exchange factor 3 (Homo sapiens)",
    "activation": "0.499% [at 30.8 µM] (inactive)"
  },
  {
    "compound": "Cc1noc(C)c1C(=O)N(CC(C)C)c1nc2ccccc2s1",
    "test target": "Rap guanine nucleotide exchange factor 3 (Homo sapiens)",
    "activation": "inactive"
  }
]

###

System: CP237
Assay: qHTS profiling for inhibitors of Plasmodium falciparum proliferation (AID 504749); note: nearly all actives have a fitted effect of over 60% in size
Conditions: P. falciparum in erythrocytes, SYBR Green DNA, 72 h; series mostly up to 28.7 µM
Procedure: NIH National Institute of Allergy and Infectious Diseases [NIAID] NIH Chemical Genomics Center [NCGC] […] Because mature erythrocytes lack DNA, only Plasmodium-derived DNA is detected. NCGC Assay Protocol Summary: The SYBR Green viability assay was adapted from a method described previously (Plouffe et al., 2008). […] The following morning, fluorescence intensity at 485(14) nm excitation and 535(25) nm emission wavelengths was measured on an EnVision (Perkin Elmer) plate reader. […]
Records with an inconclusive call do not appear. Calls of active or inactive are those of the source. Calls come from the whole dose curve; as a rule, active = well fitted inhibition curve with a large enough effect; inconclusive = small, poorly fitted or top-dose-only effect; inactive = flat fitted curve, though single readings scatter.
Possible outcomes: yes (1) (active), no (0) (inactive)

[
  {
    "molecule": "CN1CC[C@H](CN2c3ccccc3Sc3ccccc32)C1",
    "class name": "yes (1)"
  },
  {
    "molecule": "CN(C)CCCCCCN(C)C",
    "class name": "no (0)"
  },
  {
    "molecule": "CO[C@@H]1[C@@H](OC2OC(C)C(OC3CC(C)(O)C(OC(=O)CC(C)C)C(C)O3)C(N(C)C)C2O)[C@@H](CC=O)C[C@@H](C)C(=O)/C=C\\C2O[C@H]2C[C@@H](C)OC(=O)C[C@H]1OC(C)=O (some centres undefined)",
    "class name": "yes (1)"
  },
  {
    "molecule": "C/C=C\\c1ccc(OC)cc1",
    "class name": "no (0)"
  }
]

###

Target: Rap guanine nucleotide exchange factor 4 (Homo sapiens)
Assay: Confirmatory qHTS for antagonist of cAMP-regulated guanine nucleotide exchange factor 4 (EPAC2) (AID 1645885); note: nearly all actives have a fitted effect of over 25% in size
Details: EPAC2 Rap1B-BODIPY-GDP exchange fluorescence, biochemical; series mostly up to 12.7 µM
Inconclusive results are not listed. The source made the active and inactive calls. The call rests on the fitted dose curve; in most records, active means well fitted inhibition curve with a large enough effect; inconclusive means small, poorly fitted or top-dose-only effect; inactive means no such curve, though single readings can be large or run the other way.
Possible outcomes: 1 = active, 0 = inactive

[
  {
    "compound": "CCOC(=O)c1cc2n(c1/N=C/N(C)C)-c1ccccc1C2=O",
    "class name": 0
  },
  {
    "compound": "COc1cc(CN(C)CC2CCCN(CCc3ccccc3F)C2)cc(Cl)c1OC (centres undefined)",
    "class name": 0
  },
  {
    "compound": "CCN1CCN(Cc2c(O)ccc3c2O/C(=C\\C=C\\c2ccccc2OC)C3=O)CC1",
    "class name": 0
  },
  {
    "compound": "CN(C)c1ccc(/C=C(\\C#N)C(=O)c2ccccc2)cc1",
    "class name": 0
  },
  {
    "compound": "CCCCC[C@H]1CN(Cc2ccccc2)C(=O)[C@@H]1CC(=O)NCc1ccc(OC)cc1",
    "class name": 1
  },
  {
    "compound": "Cc1nn(CCc2nn[nH]n2)c2nc(-c3ccc(Br)cc3)cc(C(F)(F)F)c12",
    "class name": 0
  },
  {
    "compound": "O=C1CN(C(=O)c2c(F)cccc2Cl)C(c2ccc(F)cc2)c2cc(Br)ccc2N1 (centres undefined)",
    "class name": 0
  },
  {
    "compound": "CCN(CC)c1ccc(/C=C2/C(=O)c3ccc(C(=O)O)cc3C2=O)cc1",
    "class name": 0
  },
  {
    "compound": "CCOC(=O)C1=CCN(S(=O)(=O)c2ccc(C)cc2)C1c1cccc(Cl)c1 (centres undefined)",
    "class name": 0
  }
]

###

Molecular target: Glucocorticoid receptor (Homo sapiens)
Assay: qHTS assay for small molecule agonists of glucocorticoid receptor signaling (AID 588532);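 note: 100% = dexamethasone at 0.1 µM and 0% = DMSO only wells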
Conditions: HeLa MMTV-bla, beta-lactamase ratio, agonist, 18 h; hits give high values; percent of dexamethasone control, DMSO zero
Results filed as inconclusive are left out. The source made the active and inactive calls. The call rests on the fitted dose curve; in most records, active means well fitted curve in the direction sought with a large enough effect in the signal ratio, with a control signal flat; inconclusive means small, poorly fitted or top-dose-only effect, or a change in a side signal; inactive means no such curve, though single readings can be large or run the other way; the % refers to the signal ratio.

[
  {
    "compound": "COC(=O)c1ccc(C)cc1",
    "activation": "-15.8% (inactive)"
  },
  {
    "compound": "C=CC(=O)OCCOCCOCCOCCOC(=O)C=C",
    "activation": "-5.18% (inactive)"
  },
  {
    "compound": "COc1c2ccoc2cc2oc(=O)ccc12",
    "activation": "3.88% (inactive)"
  },
  {
    "compound": "C=C(C)C1CC=C(C)C(O)C1 (centres undefined)",
    "activation": "0.682% (inactive)"
  }
]

###

Target: Rap guanine nucleotide exchange factor 4 (Homo sapiens)
Test: Confirmatory qHTS for antagonist of cAMP-regulated guanine nucleotide exchange factor 4 (EPAC2) (AID 1645885); note: nearly all actives have a fitted effect of over 25% in size
Settings: EPAC2 Rap1B-BODIPY-GDP exchange fluorescence, biochemical; series mostly up to 12.7 µM
Records with an inconclusive call do not appear. Activity calls are given as the source filed them. Calls follow the shape of the dose curve; as a rule, active = well fitted inhibition curve with a large enough effect; inconclusive = small, poorly fitted or top-dose-only effect; inactive = no such curve, though single readings can be large or run the other way.
Possible outcomes: Yes = active, No = inactive

[
  {
    "compound": "COc1ccc(CCNC(=S)N2CCN(S(=O)(=O)c3ccc(F)cc3)CC2)cc1",
    "test target": "Rap guanine nucleotide exchange factor 4 (Homo sapiens)",
    "class name": "No"
  },
  {
    "compound": "O=C(O)c1cc(-c2ccc(/C=C3/SC(=S)N(Cc4ccccc4)C3=O)o2)ccc1Cl",
    "test target": "Rap guanine nucleotide exchange factor 4 (Homo sapiens)",
    "class name": "No"
  },
  {
    "compound": "CN(C)c1ccc(/C=C/C(=O)c2cccc(Br)c2)cc1",
    "test target": "Rap guanine nucleotide exchange factor 4 (Homo sapiens)",
    "class name": "No"
  },
  {
    "compound": "COc1ccc(-c2cnnc(N/N=C/c3ccc(O)c(O)c3)n2)cc1",
    "test target": "Rap guanine nucleotide exchange factor 4 (Homo sapiens)",
    "class name": "No"
  },
  {
    "compound": "COC(=O)C1=CN(Cc2ccc(OC)c(OC)c2)C=C(C(=O)OC)C1c1ccccc1F",
    "test target": "Rap guanine nucleotide exchange factor 4 (Homo sapiens)",
    "class name": "Yes"
  },
  {
    "compound": "Cc1cc(O)cc(C)c1NS(=O)(=O)c1ccc2ccccc2c1",
    "test target": "Rap guanine nucleotide exchange factor 4 (Homo sapiens)",
    "class name": "No"
  },
  {
    "compound": "O=C(Nc1ccc(Br)cc1C(=O)O)c1ccc2c(c1)C(=O)N(Cc1ccccc1)C2=O",
    "test target": "Rap guanine nucleotide exchange factor 4 (Homo sapiens)",
    "class name": "No"
  },
  {
    "compound": "COc1ccc(Cl)cc1NC(=O)CN(C)C(C)C(=O)NC(=O)NC1CCCCC1 (stereo not drawn)",
    "test target": "Rap guanine nucleotide exchange factor 4 (Homo sapiens)",
    "class name": "No"
  },
  {
    "compound": "Cc1ccc(C)n1-c1nn(S(=O)(=O)c2ccccc2)c2cccc(F)c12",
    "test target": "Rap guanine nucleotide exchange factor 4 (Homo sapiens)",
    "class name": "Yes"
  },
  {
    "compound": "Nc1c2c(=O)[nH]c(O)cc2nn1-c1ccccc1",
    "test target": "Rap guanine nucleotide exchange factor 4 (Homo sapiens)",
    "class name": "No"
  },
  {
    "compound": "Cc1ccc(/C=C(\\C#N)C(=O)Nc2cccc3ncccc23)o1",
    "test target": "Rap guanine nucleotide exchange factor 4 (Homo sapiens)",
    "class name": "No"
  },
  {
    "compound": "CC(C)=CCC[C@H](C)C[C@@H]1Cc2[nH][nH]c(=O)c2[C@@H](c2ccc(F)cc2)O1",
    "test target": "Rap guanine nucleotide exchange factor 4 (Homo sapiens)",
    "class name": "No"
  },
  {
    "compound": "COc1cccc(CN(C)CC(=O)Nc2c(C)cccc2C(C)C)c1",
    "test target": "Rap guanine nucleotide exchange factor 4 (Homo sapiens)",
    "class name": "No"
  },
  {
    "compound": "CCOC(=O)c1c(C)oc2c1c(C=NCCO)c(O)c1ccccc12",
    "test target": "Rap guanine nucleotide exchange factor 4 (Homo sapiens)",
    "class name": "No"
  },
  {
    "compound": "CCOC(=O)c1ccc(NC(=S)NNC(=O)C2(C)CC2(Cl)Cl)cc1 (stereo not drawn)",
    "test target": "Rap guanine nucleotide exchange factor 4 (Homo sapiens)",
    "class name": "No"
  },
  {
    "compound": "Cc1ccc2nc(-c3ccccc3)c(Cc3cccc(F)c3)n2c1",
    "test target": "Rap guanine nucleotide exchange factor 4 (Homo sapiens)",
    "class name": "Yes"
  },
  {
    "compound": "Cc1ccn2c(=O)c(NC(=O)c3ccc(Br)o3)c(C)nc2c1",
    "test target": "Rap guanine nucleotide exchange factor 4 (Homo sapiens)",
    "class name": "No"
  },
  {
    "compound": "CN(C)c1ccc(/C=C/c2cc[n+](C)c3ccccc23)cc1",
    "test target": "Rap guanine nucleotide exchange factor 4 (Homo sapiens)",
    "class name": "Yes"
  },
  {
    "compound": "CCOC(=O)C1CCCN(c2c(C(=O)c3ccccc3)cnc3ccc(OC)cc23)C1 (stereo not drawn)",
    "test target": "Rap guanine nucleotide exchange factor 4 (Homo sapiens)",
    "class name": "No"
  },
  {
    "compound": "CC(=O)CCc1oc2c([N+](=O)[O-])cccc2c1-c1ccc(C)o1",
    "test target": "Rap guanine nucleotide exchange factor 4 (Homo sapiens)",
    "class name": "No"
  },
  {
    "compound": "Cc1[nH]n(-c2ccccc2)c(=O)c1C(c1ccc(C(=O)O)cc1)c1c(C)[nH]n(-c2ccccc2)c1=O",
    "test target": "Rap guanine nucleotide exchange factor 4 (Homo sapiens)",
    "class name": "No"
  },
  {
    "compound": "CCCc1cc2c(-c3ccccc3)cc(=O)oc2cc1OCc1ccc(C(=O)O)o1",
    "test target": "Rap guanine nucleotide exchange factor 4 (Homo sapiens)",
    "class name": "No"
  },
  {
    "compound": "Cc1cc(C)n2nc(C(=O)N/N=C/c3c4ccccc4cc4ccccc34)nc2n1",
    "test target": "Rap guanine nucleotide exchange factor 4 (Homo sapiens)",
    "class name": "No"
  },
  {
    "compound": "Cn1c(/N=C/c2c(O)ccc3ccccc23)nc2ccccc21",
    "test target": "Rap guanine nucleotide exchange factor 4 (Homo sapiens)",
    "class name": "No"
  },
  {
    "compound": "Cc1ccc(N(Cc2ccc([N+](=O)[O-])cc2)C(=O)c2ccco2)cc1",
    "test target": "Rap guanine nucleotide exchange factor 4 (Homo sapiens)",
    "class name": "Yes"
  },
  {
    "compound": "C#Cc1ccc([C@@H]2C=C(C(=O)NCc3ccccc3)O[C@H](OCc3ccc(CO)cc3)C2)cc1",
    "test target": "Rap guanine nucleotide exchange factor 4 (Homo sapiens)",
    "class name": "No"
  },
  {
    "compound": "Cc1ccc(NC(=O)C2(C)CCN2CCc2ccccc2)cc1 (stereo not drawn)",
    "test target": "Rap guanine nucleotide exchange factor 4 (Homo sapiens)",
    "class name": "No"
  },
  {
    "compound": "CC(=O)Nc1ccc(N=Cc2c(O)c(C(=O)Nc3ccccc3)cc3ccccc23)cc1",
    "test target": "Rap guanine nucleotide exchange factor 4 (Homo sapiens)",
    "class name": "No"
  },
  {
    "compound": "Cc1ccccc1C1(O)c2ccccc2-c2ccccc21",
    "test target": "Rap guanine nucleotide exchange factor 4 (Homo sapiens)",
    "class name": "No"
  },
  {
    "compound": "COC(=O)[C@H](Cc1ccccc1)NC(=O)c1ccc2ccccc2n1",
    "test target": "Rap guanine nucleotide exchange factor 4 (Homo sapiens)",
    "class name": "No"
  },
  {
    "compound": "CCc1nc2c(OCc3ccc(C(=O)N(C)C)cc3)cccn2c1N(C)C(=O)c1ccc(C)cc1",
    "test target": "Rap guanine nucleotide exchange factor 4 (Homo sapiens)",
    "class name": "No"
  },
  {
    "compound": "COc1ccc(NC(=O)CN(C)C(=O)c2cc(-c3ccco3)nc3ccccc23)cc1",
    "test target": "Rap guanine nucleotide exchange factor 4 (Homo sapiens)",
    "class name": "No"
  },
  {
    "compound": "C=CCc1cccc(CNc2c(C)cc(C)cc2C)c1O",
    "test target": "Rap guanine nucleotide exchange factor 4 (Homo sapiens)",
    "class name": "No"
  }
]
